B1: library; numbered along this chain (parent)
chain: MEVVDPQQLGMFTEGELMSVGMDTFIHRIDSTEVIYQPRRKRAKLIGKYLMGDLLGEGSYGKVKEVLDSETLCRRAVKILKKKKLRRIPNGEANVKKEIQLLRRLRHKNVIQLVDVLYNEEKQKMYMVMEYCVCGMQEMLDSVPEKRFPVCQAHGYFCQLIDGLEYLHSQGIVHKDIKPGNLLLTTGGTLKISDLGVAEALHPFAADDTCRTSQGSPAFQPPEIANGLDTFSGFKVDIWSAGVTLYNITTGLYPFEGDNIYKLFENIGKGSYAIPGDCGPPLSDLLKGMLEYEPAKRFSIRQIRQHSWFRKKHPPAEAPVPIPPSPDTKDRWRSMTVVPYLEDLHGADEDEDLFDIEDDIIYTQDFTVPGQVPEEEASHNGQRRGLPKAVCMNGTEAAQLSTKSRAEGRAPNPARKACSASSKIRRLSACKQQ

variants of: B1; assay: STK11 functional score (HeLa growth suppression), rescaled enrichment; synonymous median = 1, nonsense median = 0 (normalised score); details: with HeLa; variant type: missense
I would appreciate it if you labelled entries Yes when STK11 functional score is 1 or higher, otherwise No.

changes=K423E category_label=Yes
changes=E33M category_label=Yes
changes=N266P category_label=Yes
changes=L167E category_label=No

Form field: STK11 functional score at least 1? Entry: `K178W`
No

Given the entry `C158L` , answer whether its STK11 functional score meets or surpasses 1.
No

Kindly determine if STK11 functional score recorded for `R87T` is above or exactly 1.
Yes
